- Study target: MexL (Pseudomonas aeruginosa, UniProt Q9HXW2)
- Sequence (Q9HXW2 1-212): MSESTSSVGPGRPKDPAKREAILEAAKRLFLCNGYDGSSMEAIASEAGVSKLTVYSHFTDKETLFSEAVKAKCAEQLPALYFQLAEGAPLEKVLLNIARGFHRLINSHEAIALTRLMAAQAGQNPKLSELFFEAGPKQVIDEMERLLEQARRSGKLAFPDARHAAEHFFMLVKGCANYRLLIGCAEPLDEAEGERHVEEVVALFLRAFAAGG
- Experiment description: BLI
Property name: Kd (µM)
Provide the reading as a plain figure in µM.

Enquiry: Bench note: what Kd did Cn1c2cccc(=O)c-2nc2ccccc21 show?
Return: 84.2

meta.source: paper PMC11865548
